target: Gal(b1-4)GlcNAc(b1-3)Gal(b1-3)GalNAc; experiment: glycan array binding signal (z-score within array); higher = stronger binding; details: glycan notation: IUPAC condensed, linker removed
This excerpt belongs to a sample that is enriched for the strongest signals.
Quantity: glycan array binding signal (z-score)
Lab note: jot down the number only; don't add units.

In: # query: glycan array binding signal (z-score) of entry Nc3LysM-2 (protein) AHVLQARQSVSCDFATAANTGDTCASFAAAWGITEAAFAKLNPGVSCPGNLIAGSEYCVIGTVSTGAPTTTKAATTSTTPPTTTTTTKATTLSTSTTSVSPTGPSPQMPSITSTCNKFYQVQSGDGCWSIEQAQGVSASDFMAWNKAVDAQCDNLWLGYYVCVGVKGGSSPPPTTTTKPASSSAPTPQMPNTVSNCKKFHKVVSGDGCWAIEQAAGISASDFAKWNPYVDAACDNLWLGYYVCIGV
Out: -1.18

In: # query: glycan array binding signal (z-score) of entry Cohesin-hDCIR (Homo sapiens) (protein) LDDLDAVRIKVDTVNAKPGDTVRIPVRFSGIPSKGIANCDFVYSYDPNVLEIIEIEPGDIIVDPNPDKSFDTAVYPDRKIIVFLFAEDSGTGAYAITKDGVFATIVAKVKEGAPNGLSVIKFVEVGGFANNDLVEQKTQFFDGGANVGDTTEPATPTTPVTTPTTTDDLDAASQKYSQLLEKKTTKELVHTTLECVKKNMPVEETAWSCCPKNWKSFSSNCYFISTESASWQDSEKDCARMEAHLLVINTQEEQDFIFQNLQEESAYFVGLSDPEGQRHWQWVDQTPYNESSTFWHPREPSDPNERCVVLNFRKSPKRWGWNDVNCLGPQRSVCEMMKIHLHHHHHH
Out: -0.458

In: # query: glycan array binding signal (z-score) of entry LecRKVI.2 (protein) RTTTNFAFRGFNGNQSKIRIEGAAMIKPDGLLRLTDRKSNVTGTAFYHKPVRLLNRNSTNVTIRSFSTSFVFVIIPSSSSNKGFGFTFTLSPTPYRLNAGSAQYLGVFNKENNGDPRNHVFAVEFDTVQGSRDDNTDRIGNDIGLNYNSRTSDLQEPVVYYNNDDHNKKEDFQLESGNPIQALLEYDGATQMLNVTVYPARLGFKPTKPLISQHVPKLLEIVQEEMYVGFTASTGKGQSSAHYVMGWSFSSGGERPIADVLILSELPPPPPNKAKKEGLNS
Out: -0.047

In: # query: glycan array binding signal (z-score) of entry MGL (Homo sapiens), Q8IUN9 (protein) MTRTYENFQYLENKVKVQGFKNGPLPLQSLLQRLCSGPCHLLLSLGLGLLLLVIICVVGFQNSKFQRDLVTLRTDFSNFTSNTVAEIQALTSQGSSLEETIASLKAEVEGFKQERQAGVSELQEHTTQKAHLGHCPHCPSVCVPVHSEMLLRVQQLVQDLKKLTCQVATLNNNASTEGTCCPVNWVEHQDSCYWFSHSGMSWAEAEKYCQLKNAHLVVINSREEQNFVQKYLGSAYTWMGLSDPEGAWKWVDGTDYATGFQNWKPGQPDDWQGHGLGGGEDCAHFHPDGRWNDDVCQRPYHWVCEAGLGQTSQESH
Out: -0.27

In: # query: glycan array binding signal (z-score) of entry LlpB (Pseudomonas fluorescens) (protein) MGSSHHHHHHSSGLVPRGSHMASSGFRIILFNSANNGTAILPPRNCLVAGQYLESPSKRYKLILEADGNLRLYDNGVPIWVADSSVPYTYVDNRPNTNLVTCFYMQGSAFLVDRVGSRTWATIGDWIDGAADRAYLQVQDDGNVVVVDGVPRWARFGFTPAALPNRGVFYPDHGTGPLPSFPVWSWTF
Out: -0.092
